- TARGET OF ASSAY: T1, N(A2B2)A-avi-His (biotinylated at the avi tag)
- T1 construct: also called biotinylated N(A2B2)A-avi-His
- T1 chain: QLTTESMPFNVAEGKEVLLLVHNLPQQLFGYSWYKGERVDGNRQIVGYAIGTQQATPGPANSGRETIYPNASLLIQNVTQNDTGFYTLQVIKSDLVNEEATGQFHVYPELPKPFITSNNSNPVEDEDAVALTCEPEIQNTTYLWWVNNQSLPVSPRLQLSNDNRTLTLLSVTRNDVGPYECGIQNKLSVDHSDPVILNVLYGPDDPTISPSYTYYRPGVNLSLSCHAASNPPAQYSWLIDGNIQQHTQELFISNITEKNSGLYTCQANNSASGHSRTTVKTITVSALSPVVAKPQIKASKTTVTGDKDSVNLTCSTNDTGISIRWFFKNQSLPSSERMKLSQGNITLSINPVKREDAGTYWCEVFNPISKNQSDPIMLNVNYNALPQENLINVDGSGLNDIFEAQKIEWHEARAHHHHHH
- TEST NAME: SPR off-rate, ProteOn, antigen on NLC chip, Fab in bacterial supernatant
# key: entry, value: koff

Answered cases to consult:
BINDER	koff
P005.102 Fab (Fab, V domains shown, Fab from E. coli) VH: EVQLLESGGGLVQPGGSLRLSCAASGFTFTDYYMNWVRQAPGKGLEWLGFIGNKANAYTTEYSASVKGRFTISRDKSKNTLYLQMNSLRAEDTATYYCTRDRGIRFQFDYWGQGTTVTVSS VL: EIVLTQSPATLSLSPGERATLSCRASSSVTYIHWYQQKPGQAPRSWIYATSNLASGIPARFSGSGSGTDFTLTISSLEPEDFAVYYCQHWSSKSPTFGQGTKLEIK	4.24e-05 s⁻¹
A5H1EL1D Fab (phage display format, parental clone) (Fab, V domains shown, Fab from E. coli (bacterial supernatant or IMAC-purified), Flag tag) VH: EVQLLESGGGLVQPGGSLRLSCAASGFTFTDYYMNWVRQAPGKGLEWLGFIGNKANAYTTEYSASVKGRFTISRDKSKNTLYLQMNSLRAEDTATYYCTRDRGLRFYFDYWGQGTTVTVSS VL: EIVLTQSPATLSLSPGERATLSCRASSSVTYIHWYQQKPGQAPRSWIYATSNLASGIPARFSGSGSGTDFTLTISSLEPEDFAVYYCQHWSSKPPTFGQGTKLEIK	0.00031 s⁻¹

Now, please, on to the next binder.
q: Returns the measured koff for the input binder. Input: P001.177 Fab (Fab, V domains shown, Fab from E. coli) VH: EVQLLESGGGLVQPGGSLRLSCAASGFYFTDYYMNWVRQAPGKGLEWLGFISNKANAYTTEYSASVKGRFTISRDKSKNTLYLQMNSLRAEDTATYYCTRDRGLRFYFDYWGQGTTVTVSS VL: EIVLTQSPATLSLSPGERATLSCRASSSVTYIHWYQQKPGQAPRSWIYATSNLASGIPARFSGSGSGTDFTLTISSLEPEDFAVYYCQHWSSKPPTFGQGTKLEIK
a: 9.81e-05 s⁻¹

Measured values drawn from patent US20230416365A1 for this set.
